# Test system: Fusarium nivale (var. majus)
# TEST NAME: Fusarium nivale (var. majus)-test (wheat)/preventive
# TEST PARAMETERS: 500 ppm, preventive, evaluated 5 days after inoculation
Measured Efficacy accompanies every entry in the list below.
Output spec: scalar in %, unitless text.

Example cases with answers are listed next.
1. Cn1nc(C(F)F)c(C(=O)Nc2ccccc2-c2ccc(Cl)cc2)c1Cl: 100
2. Cn1nc(C(F)F)c(C(=O)Nc2ccccc2-c2ccc(Br)c(Cl)c2)c1F: 100
3. CC1CC(C)(C)c2cccc(NC(=O)c3c(C(F)F)nn(C)c3F)c21 (racemic): 75
4. Cn1nc(C(F)F)c(C(=O)Nc2ccccc2-c2ccc(Br)cc2)c1F: 93
5. Cn1nc(C(F)F)c(C(=O)Nc2ccccc2-c2ccc(C(F)(F)F)c(F)c2)c1F: 93
6. Cn1nc(C(F)F)c(C(=O)Nc2ccc(F)cc2-c2ccc(C(F)(F)F)c(F)c2)c1F: 86

Noted for C=C(C)COc1cccc(NC(=O)c2c(C(F)F)nn(C)c2F)c1 : its Efficacy reads 100

Documented Efficacy of Cn1nc(C(F)F)c(C(=O)Nc2ccccc2-c2ccc(F)c(F)c2)c1Cl : 100

Sure, the documented Efficacy for Cn1nc(C(F)F)c(C(=S)Nc2ccccc2-c2ccc(C(F)(F)F)c(F)c2)c1Cl is 100

----------
# TEST NAME: logP by HPLC on reversed-phase column (EEC Directive 79/831 Annex V.A8)
# TEST PARAMETERS: HPLC on reversed-phase column (C 18), EEC Directive 79/831 Annex V.A8
A collection of compounds and their measured logP
Respond with the number and no other words.

Use the examples below as a reference point.
1) CC(C)CC(C)c1ccccc1NC(=O)c1c(C(F)F)nn(C)c1F (centres unmarked): 3.85
2) Cn1nc(C(F)F)c(C(=O)Nc2ccccc2C2CC2C2CC2)c1F (centres unmarked): 3.67
3) Cn1nc(C(F)F)c(C(=S)Nc2ccccc2C2CC2C2CC2)c1Cl (single isomer, unassigned) [Example 49]: 3.79
4) CC(C)c1ccccc1NC(=O)c1c(C(F)F)nn(C)c1Cl: 3.02
5) Cn1nc(C(F)F)c(C(=O)Nc2ccccc2C2CC2C2CC2)c1Cl (single isomer, unassigned) [Example 47]: 3.76

Documented logP of Cn1nc(C(F)F)c(C(=O)Nc2cccc(-c3ccc(F)cc3)c2)c1F : 3.39

Recorded result, Cn1nc(C(F)F)c(C(=O)Nc2ccccc2SC(F)(F)C(F)(F)C(F)(F)F)c1F , logP: 4.25

Lab note: measured logP of Cn1nc(C(F)F)c(C(=O)Nc2cccc(-c3ccc(C(F)(F)F)cc3)c2)c1Cl was 4.19

Record Cn1nc(C(F)F)c(C(=O)Nc2cccc(-c3cccc([Si](C)(C)C)c3)c2)c1Cl . Reported logP: 5.17

The value of logP measured for the compound CC(C)c1cccc(-c2ccccc2NC(=O)c2c(C(F)F)nn(C)c2Cl)c1 turned out to be 4.76

compound Cn1nc(C(F)F)c(C(=O)Nc2ccccc2-c2ccc(Cl)c(Cl)c2)c1Cl , logP observed: 4.14

----------
# TEST NAME: logP by HPLC on reversed-phase column (EEC Directive 79/831 Annex V.A8)
# TEST PARAMETERS: HPLC on reversed-phase column (C 18), EEC Directive 79/831 Annex V.A8
MEASURED PARAMETER: logP
Number only, please.

The examples below pair each entry with its known result.
1. Cc1cc(C)c(-c2cccc(NC(=O)c3c(C(F)F)nn(C)c3Cl)c2)c(C)c1: 4.56
2. Cn1nc(C(F)F)c(C(=O)Nc2ccccc2-c2cccc([Si](C)(C)C)c2)c1Cl: 5.25

Here is the next item to consider.
The molecule listed as CC(C)Oc1cccc(-c2ccccc2NC(=O)c2c(C(F)F)nn(C)c2Cl)c1 has a reported logP of 4.36

----------
# System: Fusarium nivale (var. majus)
# TEST NAME: Fusarium nivale (var. majus)-test (wheat)/preventive
# TEST PARAMETERS: 500 ppm, preventive, evaluated 5 days after inoculation
Each record is given 1 if its reported Efficacy is strictly below 90%. Records at or above 90% are given -1.

Example entries begin here.
1. CC(C)C1C2CCC1c1c(NC(=O)c3c(C(F)F)nn(C)c3F)cccc12 (centres unmarked) [Example 66]: 1
2. Cn1nc(C(F)F)c(C(=O)Nc2ccccc2-c2ccc(Cl)c(Cl)c2)c1Cl [Example 126]: -1
3. Cn1nc(C(F)F)c(C(=O)Nc2ccccc2-c2ccc(Br)cc2)c1Cl [Example 140]: 1
4. CC(CC(C)(C)C)c1ccccc1NC(=O)c1c(C(F)F)nn(C)c1Cl (centres unmarked) [Example 22]: 1
5. Cn1nc(C(F)F)c(C(=O)Nc2ccccc2-c2ccc(C(F)(F)F)c(F)c2)c1Cl [Example 148]: 1
6. CCCC(C)c1ccccc1NC(=O)c1c(C(F)F)nn(C)c1Cl (centres unmarked) [Example 9]: -1
7. Cn1nc(C(F)F)c(C(=O)Nc2ccc(F)cc2-c2ccc(Cl)c(F)c2)c1Cl [Example 98]: 1
8. CC(C)Oc1cccc(NC(=O)c2c(C(F)F)nn(C)c2Cl)c1 [Example 169]: 1

Q) Item Cn1nc(C(F)F)c(C(=O)Nc2ccc3c(c2)CCC3)c1Cl [Example 193] : Efficacy beneath 90%, strictly?
A) 1

Q) Does this molecule meet the criterion Efficacy < 90%? Cn1nc(C(F)F)c(C(=O)Nc2cccc3c2C2CCC3C2=C(Cl)Cl)c1F (centres unmarked) [Example 72]
A) -1

Q) Lab note: Efficacy threshold 90%. Does this molecule come in strictly under it? CC(C)C1C2CCC1c1c(NC(=O)c3cn(C)nc3C(F)F)cccc12 (stereo not drawn) [15.202 (syn/anti 9/1) from WO-2004/035589] [reference compound]
A) 1

Q) Take the molecule Cn1nc(C(F)F)c(C(=O)Nc2cccc3c2CCC3)c1Cl [Example 55] and say whether its Efficacy is less than 90%.
A) 1

Q) Report whether reported Efficacy is lower than 90% (strictly) for Cn1nc(C(F)F)c(C(=O)Nc2ccc(F)cc2-c2ccc(C(F)(F)F)cc2)c1F [Example 118]
A) 1

----------
# TEST NAME: logP by HPLC on reversed-phase column (EEC Directive 79/831 Annex V.A8)
# TEST PARAMETERS: HPLC on reversed-phase column (C 18), EEC Directive 79/831 Annex V.A8
MEASURED PARAMETER: logP
I'd appreciate a reply containing only the number, no unit.

1. CC(C)Oc1ccc(-c2ccccc2NC(=O)c2c(C(F)F)nn(C)c2F)cc1 [compound 113]: 4.01

Summary for this molecule, Cn1nc(C(F)F)c(C(=O)Nc2ccccc2Sc2ccc(Cl)cc2)c1F [compound 164] : logP is 4.34

logP for Cn1nc(C(F)F)c(C(=O)Nc2ccccc2-c2cccc(OC(F)(F)F)c2)c1F [compound 142] is 3.83

According to the records, this molecule Cn1nc(C(F)F)c(C(=O)Nc2ccccc2-c2cccc(Cl)c2)c1F [Example 86] displays logP of 3.55

Short answer for Cn1nc(C(F)F)c(C(=O)Nc2ccccc2-c2ccc(C(C)(C)C)cc2)c1F [compound 109] : logP was 4.73

logP for Cn1nc(C(F)F)c(C(=O)Nc2ccccc2-c2cc(F)c(F)c(F)c2)c1Cl [Example 105] is 3.52

Given item Cn1nc(C(F)F)c(C(=O)Nc2ccc(F)cc2-c2ccc(Cl)cc2)c1Cl [Example 83] , the value recorded as its logP is 3.76

Entry under test: Cn1nc(C(F)F)c(C(=O)Nc2ccccc2OC(F)(F)C(F)F)c1F [compound 29] . Its logP was 3.08

So for Cc1ccccc1Oc1ccccc1NC(=O)c1c(C(F)F)nn(C)c1F [compound 160] , the logged logP turned out to be 3.96

Origin of measurements: patent US9375004B2
